Data provenance is PubChem BioAssay AID1159580.

measurement description: chemical genetic growth profiling, strain panel (AID 1159580);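 further: tested at 20 µM; growth read once vehicle control cultures reached saturation at 30 °C; 1 = growth at the plate median or of vehicle wells; lower values mean less growth of the strain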
experimental setup: S. cerevisiae deletion strains, growth OD, locus YAR019C, strain CDC15, stronger effect = lower value
Out of some 5,500 compounds screened, about 2,000 (36%) were called active. Not shown: some 18% with an inconclusive outcome. The list shows a part of the results.
normalized growth: recorded values
Give the figure only, with no unit attached.

Here are 5 compounds together with their reported answers.
O=C1Nc2ccccc2/C1=C/c1ccc(Oc2ccccc2)nc1 :: 0.965
O=C1Nc2ccccc2/C1=C\c1c(Cl)cccc1Cl :: 0.966
Oc1c(Br)cc(Br)cc1C=Nc1ccc(Sc2ccccc2)nc1Sc1ccccc1 :: 0.92
COc1ccc(/C=C2/C(=O)Nc3ccccc32)cc1 :: 0.877
Oc1c(Cl)cc(Cl)cc1C=Nc1ccc(Sc2ccccc2)nc1Sc1ccccc1 :: 0.938

Kindly consider the entry below.
Exercise: Using the record for COCCCNC(=S)N/N=C\c1cc(Cl)cc(Cl)c1O , report its normalized growth.
Solution: 0.958

----------
measurement description: chemical genetic growth profiling, strain panel (AID 1159580)
experimental setup: S. cerevisiae deletion strains, growth OD, locus YOR270C, strain vph1, stronger effect = lower value
Among all 5,500 compounds or so, about 2,000 (36%) were called active. Inconclusive results (about 18%) are left out. This is one part of the list.
normalized growth: recorded values
Give the figure only, with no unit attached.

Here are 4 compounds together with their reported answers.
CC(CC(O)C1OC1(C)C)[C@@H]1CCC2(C)C3=CCC4C(C)(C)C(=O)CCC4(C)C3CC[C@@]12C (stereo not given in full) :: 0.877
C[C@]12CCC3c4ccc(O)cc4CCC3C1CC[C@@H]2O (stereo not given in full) :: 0.797
CC(C1OC(C)(C)C(O)C1O)[C@@H]1CC[C@]2(C)C3=CCC4C(C)(C)C(=O)CC[C@]4(C)C3CC[C@@]12C (stereo not given in full) :: 0.821
Cc1cc(C2CCCCC2)n(O)c(=O)c1 :: 0.0971

Exercise: Using the record for COc1ccccc1/C=C\C(=O)O , report its normalized growth.
Solution: 0.843

----------
measurement description: chemical genetic growth profiling, strain panel (AID 1159580)
experimental setup: S. cerevisiae deletion strains, growth OD, locus YJL115W, strain asf1, stronger effect = lower value
Among all 5,500 compounds or so, about 2,000 (36%) were called active. Not shown: some 18% with an inconclusive outcome. This is one part of the list.
metric: normalized growth
Give the figure only, with no unit attached.

O=c1cc(-c2ccc(O)cc2)oc2cc(O[C@@H]3O[C@H](CO)[C@@H](O)[C@H](O)[C@H]3O)cc(O)c12 :: 1.01
C[C@H]1O[C@H](OC2[C@@H](O)[C@@H](O)C(O)[C@H](O)[C@H]2O)[C@@H](N)C[C@@H]1N=C(N)C(=O)O (some centres undefined) :: 0.974
CCC(=O)c1c(O)cc(O)cc1O :: 0.996

Exercise: Using the record for COC(=O)c1c(C)cc(O)cc1O , report its normalized growth.
Solution: 1.01

Exercise: Using the record for CCN[C@@H]1C[C@H](N)[C@@H](O[C@H]2OC(CN)=CC[C@H]2N)[C@H](O)[C@H]1OC1OC[C@](C)(O)[C@H](NC)[C@H]1O (some centres undefined) , report its normalized growth.
Solution: 0.998

Exercise: Using the record for CN[C@@H]1[C@@H](O)C(OC2[C@@H](N)C[C@@H](N)[C@H](O[C@H]3O[C@H](C(C)O)[C@@H](O)[C@H](O)[C@H]3N)[C@H]2O)OC[C@]1(C)O (some centres undefined) , report its normalized growth.
Solution: 0.984

Exercise: Using the record for CCOC(=O)c1c(C)cc(O)cc1O , report its normalized growth.
Solution: 0.939

Exercise: Using the record for CCC(c1ccc(O)cc1)C(CC)c1ccc(O)cc1 (centres undefined) , report its normalized growth.
Solution: 1.02

Exercise: Using the record for CC1(C)O[C@H]2CC(=O)OC[C@]23[C@H]2CC[C@@]4(C)[C@H](c5ccoc5)OC(=O)[C@H]5O[C@]54[C@]2(C)C(=O)C[C@@H]13 , report its normalized growth.
Solution: 0.95

Exercise: Using the record for Cc1cc(OC(=O)c2c(C)cc(O)cc2O)cc(O)c1C(=O)O , report its normalized growth.
Solution: 0.987

Exercise: Using the record for COc1cc(OC)c2ccc(=O)oc2c1 , report its normalized growth.
Solution: 0.969

Exercise: Using the record for CC/C(=C(/CC)c1ccc(O)cc1)c1ccc(O)cc1 , report its normalized growth.
Solution: 1.04

Exercise: Using the record for CC1(C)C2CC(=O)[C@]3(C)C(CC[C@@]4(C)[C@H](c5ccoc5)OC(=O)C5OC543)[C@@]2(C)[C@@H](O)C[C@H]1O (some centres undefined) , report its normalized growth.
Solution: 0.999

Exercise: Using the record for CN[C@@H]1C(O)[C@@H](O[C@@H]2[C@@H](O)[C@H](O[C@H]3OC(CN)=CC[C@H]3N)[C@@H](N)C[C@H]2N)OC[C@]1(C)O (some centres undefined) , report its normalized growth.
Solution: 1.02

Exercise: Using the record for CC1(C)C(=O)C=C[C@@]2(C)C1C=C[C@]1(C)C2CC[C@@]2(C)[C@H](c3ccoc3)OC(=O)C3OC321 (some centres undefined) , report its normalized growth.
Solution: 1

Exercise: Using the record for COc1c2ccoc2cc2oc(=O)ccc12 , report its normalized growth.
Solution: 0.967

Exercise: Using the record for COC(=O)c1c(C)cc(OC)cc1O , report its normalized growth.
Solution: 0.987

Exercise: Using the record for CCC(N)C(O)c1ccc(O)c(O)c1 (centres undefined) , report its normalized growth.
Solution: 0.992

Exercise: Using the record for CO[C@@]1(NC(=O)C(C(=O)O)c2ccc(O)cc2)C(=O)N2C(C(=O)O)=C(CSc3nnnn3C)CO[C@@H]21 (some centres undefined) , report its normalized growth.
Solution: 0.96

----------
measurement description: chemical genetic growth profiling, strain panel (AID 1159580);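 further: tested at 20 µM; growth read once vehicle control cultures reached saturation at 30 °C; 1 = growth at the plate median or of vehicle wells; lower values mean less growth of the strain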
experimental setup: S. cerevisiae deletion strains, growth OD, locus YOR080W, strain dia2, stronger effect = lower value
Hit rate of the full screen: of about 5,500 compounds, about 2,000 (36%) were called active. Another 18% or so got no clear call; they are omitted. This is one part of the list.
normalized growth: recorded values
Give the figure only, with no unit attached.

C=C(C)[C@H]1COc2cc3oc(=O)ccc3cc2O1 :: 0.921
C[C@@H]1O[C@@H](OC[C@H]2OC(Oc3c(-c4ccc(OCCO)c(OCCO)c4)oc4cc(OCCO)cc(O)c4c3=O)[C@H](O)[C@@H](O)[C@@H]2O)[C@H](O)[C@H](O)[C@H]1O (some centres undefined) :: 0.943
COc1ccc(-c2oc3c(CC=C(C)C)c(O[C@@H]4O[C@H](CO)[C@@H](O)[C@H](O)[C@H]4O)cc(O)c3c(=O)c2O[C@@H]2O[C@@H](C)[C@H](O)[C@@H](O)[C@H]2O)cc1 :: 1.04
CN[C@@H]1[C@@H](O)C(OC2[C@@H](N)C[C@@H](N)[C@H](O[C@H]3O[C@H](C(C)O)[C@@H](O)[C@H](O)[C@H]3N)[C@H]2O)OC[C@]1(C)O (some centres undefined) :: 0.975

Kindly consider the entry below.
Exercise: Using the record for COc1cc(OC)c2c(=O)c(O)c(-c3ccc(OC)c(OC)c3)oc2c1 , report its normalized growth.
Solution: 0.942

----------
measurement description: chemical genetic growth profiling, strain panel (AID 1159580);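 further: tested at 20 µM; growth read once vehicle control cultures reached saturation at 30 °C; 1 = growth at the plate median or of vehicle wells; lower values mean less growth of the strain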
experimental setup: S. cerevisiae deletion strains, growth OD, locus YDR195W, strain ref2
Hit rate of the full screen: of about 5,500 compounds, about 2,000 (36%) were called active. Another 18% or so got no clear call; they are omitted. Cut-off read from the data, not from the text of the source: active = normalized growth mostly below about 0.91 (no sharp cut-off); inconclusive = no clear call, values can overlap the other calls; inactive = mostly above about 0.92. Some of the results follow.
# output must be one of 1 = active, -1 = inactive

Reference set, count: 5
COc1cc2occc2c2oc(=O)ccc12 :: 1
CNC(=O)Oc1cccc2c1OC(C)(C)O2 :: -1
CCOC(=O)c1c(C)cc(OC)cc1O :: -1
COc1cc(OC)c2ccc(=O)oc2c1 :: 1
CC(=O)O[C@]1(C(C)=O)CCC2C3C=C(Cl)C4=CC(=O)[C@@H]5C[C@@H]5[C@]4(C)C3CC[C@@]21C (stereo partly drawn) :: -1

Exercise: Dear colleague, could you share the recorded outcome for O=c1ccc2c(O)c3ccoc3cc2o1 when you have a moment?
Solution: -1

Exercise: Dear colleague, could you share the recorded outcome for COc1ccc2ccc(=O)oc2c1 when you have a moment?
Solution: -1

Exercise: Dear colleague, could you share the recorded outcome for Cc1cc(OC(=O)c2c(C)cc(O)cc2O)cc(O)c1C(=O)O when you have a moment?
Solution: -1

----------
measurement description: chemical genetic growth profiling, strain panel (AID 1159580);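 further: tested at 20 µM; growth read once vehicle control cultures reached saturation at 30 °C; 1 = growth at the plate median or of vehicle wells; lower values mean less growth of the strain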
experimental setup: S. cerevisiae deletion strains, growth OD, locus YLR258W, strain gsy2, stronger effect = lower value
Out of some 5,500 compounds screened, about 2,000 (36%) were called active. Another 18% or so got no clear call; they are omitted. Some of the results follow.
normalized growth: recorded values

Here are 5 compounds together with their reported answers.
CC1(C)C=CC(=O)[C@@]2(C)C1CC(=O)[C@]1(C)C2CC[C@@]2(C)[C@H](c3ccoc3)OC(=O)C3OC321 (stereo not given in full) :: 0.988 (inactive)
CCC(c1ccc(O)cc1)C(CC)c1ccc(O)cc1 (stereo not given) :: 0.902 (active)
COc1ccc2ccc(=O)oc2c1 :: 1.02 (inactive)
COc1cc(OC)c2ccc(=O)oc2c1 :: 0.952 (inactive)
O=c1ccc2c(O)c3ccoc3cc2o1 :: 0.987 (inactive)

Exercise: Using the record for CC[n+]1c(-c2ccccc2)c2cc(N)ccc2c2ccc(N)cc21 , report its normalized growth.
Solution: 0.968 (inactive)

Exercise: Using the record for CO[C@@]1(NC(=O)C(C(=O)O)c2ccc(O)cc2)C(=O)N2C(C(=O)O)=C(CSc3nnnn3C)CO[C@@H]21 (stereo not given in full) , report its normalized growth.
Solution: 0.984 (inactive)

Exercise: Using the record for C[C@H]1O[C@H](OC2[C@@H](O)[C@@H](O)C(O)[C@H](O)[C@H]2O)[C@@H](N)C[C@@H]1N=C(N)C(=O)O (stereo not given in full) , report its normalized growth.
Solution: 1.01 (inactive)

Exercise: Using the record for C[C@]12CCC3c4ccc(O)cc4CCC3C1CC[C@@H]2O (stereo not given in full) , report its normalized growth.
Solution: 0.96 (inactive)

Exercise: Using the record for CC1(C)C(=O)C=C[C@@]2(C)C1C=C[C@]1(C)C2CC[C@@]2(C)[C@H](c3ccoc3)OC(=O)C3OC321 (stereo not given in full) , report its normalized growth.
Solution: 0.997 (inactive)
